# Procedure details: Solubility in different aqueous media
# Type: physicochemical
# Stated conditions: aqueous medium, aqueous buffer; medium: pH 4.0
Test readout: solubility

line_notation=CN1CCc2ccc(NC(=O)[C@]3(NC(=O)c4ccc(Cl)s4)CCOC3)cc2CC1 test_readout=solubility data_value="> 10000 µg/mL"

---

# Procedure details: Solubility in different aqueous media
# Assay type: physicochemical
# Stated conditions: aqueous medium, aqueous buffer; medium: pH 7.4
Test readout: solubility (µg/mL)

line_notation=CN1CCc2ccc(NC(=O)[C@]3(NC(=O)c4ccc(Cl)s4)CCOC3)cc2CC1 data_value=1800

---

# Procedure details: Solubility in different aqueous media
# Type: physicochemical
# Stated conditions: aqueous medium, aqueous buffer; medium: 0.01 N NaOH
Test readout: solubility

line_notation=CN1CCc2ccc(NC(=O)[C@]3(NC(=O)c4ccc(Cl)s4)CCOC3)cc2CC1 test_readout=solubility data_value="46 µg/mL"

---

# Procedure details: Solubility in different aqueous media
# Assay type: physicochemical
# Stated conditions: aqueous medium, aqueous buffer; medium: pH 6.0
Test readout: solubility

line_notation=CN1CCc2ccc(NC(=O)[C@]3(NC(=O)c4ccc(Cl)s4)CCOC3)cc2CC1 test_readout=solubility data_value="> 10000 µg/mL"

---

# Procedure details: Solubility in different aqueous media
# Format: physicochemical
# Stated conditions: aqueous medium, simulated gastric fluid; medium: 0.1 N HCl
Test readout: solubility

line_notation=CN1CCc2ccc(NC(=O)[C@]3(NC(=O)c4ccc(Cl)s4)CCOC3)cc2CC1 test_readout=solubility data_value="> 10000 µg/mL"

---

# Procedure details: Solubility in different aqueous media
# Type: physicochemical
# Stated conditions: aqueous medium, aqueous buffer; medium: pH 2.2
Test readout: solubility

line_notation=CN1CCc2ccc(NC(=O)[C@]3(NC(=O)c4ccc(Cl)s4)CCOC3)cc2CC1 test_readout=solubility data_value="> 10000 µg/mL"
